Give measured inhibition for each item. Keep answers brief.
target: Hypoxia-inducible factor 1-alpha (Homo sapiens); test: HIF reporter inhibition across pancreatic and renal lines – cell-based, luminescence, MIAPaCa-2, 786-0, panel, SAR follow-up (AID 652011); conditions: MIAPaCa-2/PANC HIF reporter, luciferase luminescence, desferoxamine, overnight, HIF1a, run 2; at 99 µM (top of the series)
One number for each entry, in %.

C=CCNC(=O)CCc1nc(-c2ccc(C(C)(C)C)cc2)no1
34.7
CCC(C)NC(=O)CCc1nc(-c2ccc(C(C)(C)C)cc2)no1 (stereo unspecified)
-28.9
CC(C)(C)NC(=O)CCc1nc(-c2ccccc2)no1
-36.5
CC(C)c1ccc(-c2noc(CCC(=O)NC3CC3)n2)cc1
-9.97
CCc1ccc(-c2noc(CCC(=O)NC(C)CC)n2)cc1 (stereo unspecified)
-24.3
CC(C)(C)c1ccc(-c2noc(CCC(=O)NCC3CCCO3)n2)cc1 (stereo unspecified)
8.05

Return reported inhibition values for all items listed beneath this line.
1. O=C(O)CCc1nc(-c2ccccc2)no1
2. CC(C)NC(=O)CCc1nc(-c2ccc(C(C)(C)C)cc2)no1

Result block:
16.7
26.5

Please give inhibition, item by item, for the list that follows.
1. CC(C)(C)c1ccc(-c2noc(CCC(=O)N3CCCCC3)n2)cc1
2. CCNC(=O)CCc1nc(-c2cccc(C)c2)no1
3. CCCCc1ccc(-c2noc(CCC(=O)NC3CC3)n2)cc1

Result block:
1. 103
2. -31.6
3. 36

----------
biological target: Hypoxia-inducible factor 1-alpha (Homo sapiens) (UniProt Q16665); test: HIF reporter inhibition across pancreatic and renal lines – cell-based, luminescence, MIAPaCa-2, 786-0, panel, SAR follow-up (AID 652011); conditions: MIAPaCa-2/PANC HIF reporter, luciferase luminescence, desferoxamine, overnight, HIF1a, run 2; at 99 µM (top of the series)
Sequence (Q16665 whole entry, looked up): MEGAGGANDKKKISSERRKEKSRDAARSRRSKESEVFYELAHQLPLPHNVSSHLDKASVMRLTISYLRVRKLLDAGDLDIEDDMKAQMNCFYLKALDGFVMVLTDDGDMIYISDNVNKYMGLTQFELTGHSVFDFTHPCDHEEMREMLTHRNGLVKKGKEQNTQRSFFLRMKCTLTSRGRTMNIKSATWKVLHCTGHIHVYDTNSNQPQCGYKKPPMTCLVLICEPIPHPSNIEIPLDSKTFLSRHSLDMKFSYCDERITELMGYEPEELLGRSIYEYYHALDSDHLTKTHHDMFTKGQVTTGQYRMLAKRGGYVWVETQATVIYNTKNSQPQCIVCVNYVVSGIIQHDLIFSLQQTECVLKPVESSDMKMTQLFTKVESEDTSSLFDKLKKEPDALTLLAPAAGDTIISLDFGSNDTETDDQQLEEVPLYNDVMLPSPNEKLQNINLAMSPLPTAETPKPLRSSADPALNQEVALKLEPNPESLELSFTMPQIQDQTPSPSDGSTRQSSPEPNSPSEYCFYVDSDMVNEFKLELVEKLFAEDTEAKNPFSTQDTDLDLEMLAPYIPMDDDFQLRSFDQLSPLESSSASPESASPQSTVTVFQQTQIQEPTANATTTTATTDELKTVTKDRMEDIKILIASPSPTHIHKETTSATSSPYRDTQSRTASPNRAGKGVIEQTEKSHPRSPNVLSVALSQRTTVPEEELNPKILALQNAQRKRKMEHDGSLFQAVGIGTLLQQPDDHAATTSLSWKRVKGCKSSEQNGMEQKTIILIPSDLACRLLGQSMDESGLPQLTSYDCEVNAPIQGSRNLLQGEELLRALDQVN
Reported endpoint: inhibition (%)
Numbers only, in %.

These solved cases illustrate the format of a correct answer.
CNC(=O)CCc1nc(-c2ccc(Cl)cc2)no1
-33.8
CC(C)(C)c1ccc(-c2noc(CCC(=O)NC3CCCC3)n2)cc1
81.4
CC(C)(C)c1ccc(-c2noc(CCC(=O)O)n2)cc1
94.9
CNC(=O)CCc1nc(-c2ccc(C)cc2)no1
20.3
CNC(=O)CCc1nc(-c2ccc(OC)cc2)no1
-31.5

Could you tell me inhibition for each of these molecules? They are listed below.
1. COc1ccccc1NC(=O)CCc1nc(-c2ccc(C(C)(C)C)cc2)no1
2. CC(C)(C)c1ccc(-c2noc(CCC(=O)NC3CCC3)n2)cc1

Result block:
81.3
54.4

----------
molecular target: Hypoxia-inducible factor 1-alpha (Homo sapiens); assay: HIF reporter inhibition across pancreatic and renal lines – cell-based, luminescence, MIAPaCa-2, 786-0, panel, SAR follow-up (AID 652011); conditions: MIAPaCa-2/PANC HIF reporter, luciferase luminescence, desferoxamine, overnight, HIF1a, run 2; at 99 µM (top of the series)
Note to self: values exactly at -30% are satisfied. So inhibition at or above -30% is satisfied, below is not satisfied.

Query block: Reported inhibition reaches at least -30% for CCNC(=O)CCc1nc(-c2ccc(C(C)C)cc2)no1 ?
Result block: satisfied

----------
molecular target: Hypoxia-inducible factor 1-alpha (Homo sapiens); assay: HIF reporter inhibition across pancreatic and renal lines – cell-based, luminescence, MIAPaCa-2, 786-0, panel, SAR follow-up (AID 652011); settings: MIAPaCa-2/PANC HIF reporter, luciferase luminescence, desferoxamine, overnight, HIF1a, run 2; at 99 µM (top of the series)
Reported endpoint: inhibition (%)
Answers are plain numbers, in %.

Known results for molecules:
CCCCc1ccc(-c2noc(CCC(=O)NC(C)CC)n2)cc1 (stereo not given)
58.1
COC(=O)CCc1nc(-c2ccc(C(C)(C)C)cc2)no1
93.8
CCCCc1ccc(-c2noc(CCC(=O)NC)n2)cc1
9.8
CCNC(=O)CCc1nc(-c2cccc(OC)c2)no1
-31.4

Alright, here's another molecule for you.
Query block: What does the data say about its inhibition? Entry: CC(C)(C)c1ccc(-c2noc(CCC(=O)NC3CC3)n2)cc1
Result block: -29.7
